Each recorded value in this set is attributed to patent US20070179122A1.

target: human factor Xa (Homo sapiens, UniProt P00742)
Sequence (P00742 235-488 limits assumed): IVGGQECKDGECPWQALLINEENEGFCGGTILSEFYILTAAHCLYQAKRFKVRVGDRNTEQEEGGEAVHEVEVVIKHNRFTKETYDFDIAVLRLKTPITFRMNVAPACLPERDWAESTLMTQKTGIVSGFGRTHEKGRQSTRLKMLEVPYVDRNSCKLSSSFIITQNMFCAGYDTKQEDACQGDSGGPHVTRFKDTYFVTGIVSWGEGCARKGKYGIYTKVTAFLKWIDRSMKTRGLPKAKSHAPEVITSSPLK
Sequence (P00742 41-179 partner limits assumed): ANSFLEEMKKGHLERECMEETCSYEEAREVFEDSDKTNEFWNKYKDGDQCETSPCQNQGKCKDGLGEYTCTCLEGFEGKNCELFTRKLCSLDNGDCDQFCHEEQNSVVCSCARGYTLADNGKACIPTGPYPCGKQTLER
pKi: −log10 of the molar value.
property-label: pKi

[A] O=C(CCNC(=O)c1ccc(Cl)s1)Nc1ccc(-n2ccncc2=O)cc1F
[B] COC(=O)c1cc(-n2ccccc2=O)ccc1NC(=O)CCNC(=O)c1ccc(Cl)s1
Kindly identify which of A and B has the larger recorded pKi value. Reply briefly: the label of your chosen item.
B
(B: 8.70, A: 8.40)

[1] O=C(CCNC(=O)c1ccc(Cl)s1)Nc1ccc(N2CCOCC2=O)nc1
[2] COC(=O)c1cc(N2CCOCC2=O)ccc1NC(=O)CCNC(=O)c1ccc(Cl)s1
[3] O=C(NCCC(=O)N(CC(F)F)c1ccc(N2CCOCC2=O)cc1)c1ccc(Cl)s1
[4] O=C(CCNC(=O)c1ccc(Cl)cc1)Nc1ccc(N2CCOCC2=O)cc1
Reorder: pKi, max to min. Your answer should be the labels, listed in the requested order.
2, 1, 3, 4
(2: 8.52, 1: 6.71, 3: 6.42, 4: 5.86)

[a] O=C(O)CN(C(=O)CCNC(=O)c1ccc(Cl)s1)c1ccc(N2CCOCC2=O)cc1
[b] O=C(CCNS(=O)(=O)c1ccc(Cl)s1)Nc1ccc(N2CCOCC2=O)cc1
Kindly identify which of a and b has the larger recorded pKi value. Reply briefly: the label of your chosen item.
a

[I] O=C(CCNC(=O)c1ccc(Cl)s1)Nc1ccc(-n2ccc(=O)cc2)cc1
[II] O=C(CCNC(=O)c1ccc(Cl)s1)Nc1ccc(N2CCOCS2(=O)=O)cc1
Kindly compare I with II and tell me which has the lower pKi figure. Reply briefly: the label of your chosen item.
I
(I: 6.59, II: 7.52)
